Biological target: recombinant mouse DPPIV (rmDPPIV) (Mus musculus, UniProt P28843)
Sequence (P28843 whole entry): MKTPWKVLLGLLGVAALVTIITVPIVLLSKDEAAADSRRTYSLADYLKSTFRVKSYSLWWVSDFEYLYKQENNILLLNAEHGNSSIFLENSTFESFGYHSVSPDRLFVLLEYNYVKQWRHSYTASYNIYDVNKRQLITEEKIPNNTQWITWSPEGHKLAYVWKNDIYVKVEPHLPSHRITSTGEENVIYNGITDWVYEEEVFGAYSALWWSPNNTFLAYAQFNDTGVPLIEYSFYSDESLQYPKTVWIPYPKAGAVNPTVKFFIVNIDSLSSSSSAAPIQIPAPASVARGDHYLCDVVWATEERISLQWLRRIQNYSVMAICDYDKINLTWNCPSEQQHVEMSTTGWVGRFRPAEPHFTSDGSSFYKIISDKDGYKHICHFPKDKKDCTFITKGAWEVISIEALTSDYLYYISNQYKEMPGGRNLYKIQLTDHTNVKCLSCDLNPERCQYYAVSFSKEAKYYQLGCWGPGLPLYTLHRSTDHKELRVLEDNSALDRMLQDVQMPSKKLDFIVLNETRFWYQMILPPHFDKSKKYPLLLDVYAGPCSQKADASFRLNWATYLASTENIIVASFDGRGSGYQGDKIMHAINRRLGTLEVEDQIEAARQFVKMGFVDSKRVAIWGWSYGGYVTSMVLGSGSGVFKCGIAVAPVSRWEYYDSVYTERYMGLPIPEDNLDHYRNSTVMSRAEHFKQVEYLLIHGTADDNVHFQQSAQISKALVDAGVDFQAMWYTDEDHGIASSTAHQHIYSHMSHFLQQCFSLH
Assay: DPPIV enzymatic activity assay
Settings: H-Gly-Pro-pNA substrate
property_measured: IC50

In the examples that follow, each entry is paired with its recorded IC50.
Cn1cc(C(=O)NCC(=O)N2CC(F)(F)C[C@H]2C#N)ccc1=O ... > 10 µM
N#CC1CC(F)(F)CN1C(=O)CNC(=O)c1ccnc2ccccc12 (centres unmarked) [Ref. Comp., reference compound] ... > 10 µM
N#C[C@@H]1CC(F)(F)CN1C(=O)CNC(=O)c1ccc2ncccc2c1 ... 1 to 10 µM
N#C[C@@H]1CC(F)(F)CN1C(=O)CNC(=O)c1c[nH]c(=O)c2ccccc12 ... 1 to 10 µM
N#C[C@@H]1CC(F)(F)CN1C(=O)CNC(=O)c1c[nH]c(=O)c(-c2ccccc2)c1 ... > 10 µM

Fill blank: measured IC50 of the compound `N#C[C@@H]1CC(F)(F)CN1C(=O)CNC(=O)c1ccncc1-c1ccccc1` is ____.
> 10 µM

# iterate: `Cn1cc(C(=O)NCC(=O)N2CC(F)(F)C[C@H]2C#N)c2ccccc2c1=O`
> 10 µM

# iterate: `N#C[C@@H]1CC(F)(F)CN1C(=O)CNC(=O)c1ccc(=O)[nH]c1`
> 10 µM

* * *

Molecular target: recombinant human PREP (rhPREP) (Homo sapiens)
Sequence (P48147 1-710): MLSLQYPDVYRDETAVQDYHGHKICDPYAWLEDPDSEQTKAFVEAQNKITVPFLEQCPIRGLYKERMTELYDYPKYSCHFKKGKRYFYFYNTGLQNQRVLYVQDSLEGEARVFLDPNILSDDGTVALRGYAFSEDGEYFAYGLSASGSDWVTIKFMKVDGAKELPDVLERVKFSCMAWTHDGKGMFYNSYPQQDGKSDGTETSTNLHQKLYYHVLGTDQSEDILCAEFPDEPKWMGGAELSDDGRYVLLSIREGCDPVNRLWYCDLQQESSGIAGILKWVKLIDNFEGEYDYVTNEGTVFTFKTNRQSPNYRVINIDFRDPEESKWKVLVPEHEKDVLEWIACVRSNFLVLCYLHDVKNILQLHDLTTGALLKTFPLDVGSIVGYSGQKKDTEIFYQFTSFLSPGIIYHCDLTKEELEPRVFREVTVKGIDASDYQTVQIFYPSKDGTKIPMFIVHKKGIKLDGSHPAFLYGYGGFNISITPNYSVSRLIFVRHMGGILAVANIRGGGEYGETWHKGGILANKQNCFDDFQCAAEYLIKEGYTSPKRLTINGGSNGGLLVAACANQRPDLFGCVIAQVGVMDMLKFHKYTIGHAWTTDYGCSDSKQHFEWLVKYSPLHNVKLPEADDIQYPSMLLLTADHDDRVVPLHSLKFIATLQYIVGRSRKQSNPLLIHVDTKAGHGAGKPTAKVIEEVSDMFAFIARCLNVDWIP
Experiment: PREP enzymatic activity assay
Details: Z-Gly-Pro-AMC substrate
property_measured: IC50

N#C[C@@H]1CC(F)(F)CN1C(=O)CNC(=O)c1ccncc1Sc1ccccc1 ... 1 to 10 µM
N#C[C@@H]1CC(F)(F)CN1C(=O)CNC(=O)c1ccncc1Oc1ccccc1 ... > 10 µM
N#C[C@@H]1CC(F)(F)CN1C(=O)CNC(=O)c1ccncc1Nc1cccnc1 ... 1 to 10 µM
N#C[C@@H]1CC(F)(F)CN1C(=O)CNC(=O)c1ccc(=O)n2c1CCCCC2 ... 1 to 10 µM
N#C[C@@H]1CC(F)(F)CN1C(=O)CNC(=O)c1ccncc1Nc1ccnc2ccccc12 ... > 10 µM

Fill blank: measured IC50 of the molecule CC(c1ccccc1)c1cnccc1C(=O)NCC(=O)N1CC(F)(F)C[C@H]1C#N (some centres unmarked) is ____.
1 to 10 µM

# iterate: `N#C[C@@H]1CC(F)(F)CN1C(=O)CNC(=O)c1ccncc1NC1CCNCC1`
> 10 µM

# iterate: `N#C[C@@H]1CC(F)(F)CN1C(=O)CNC(=O)c1c[nH]c(=O)cc1Cc1ccccc1`
1 to 10 µM
